// data source = paper PMC8636100

# target-desc: T1, extracellular domain (ECD) of FGFR1 fused to the Fc domain of human IgG1 (UniProt P11362 22-376, HiLyte488 dye (labelled form, used for the membrane overlay of FGFs and the PepSpot assay))
# T1 construct: FGFR1 (fibroblast growth factor receptor 1), extracellular domain; Unlabelled in the pull-down (held on Protein A resin) and in SPR (amine-coupled); also called FGFR1-Fc; source: recombinant, produced as described previously (Sokolowska-Wedzina et al., 2014)
# T1 sequence (looked up): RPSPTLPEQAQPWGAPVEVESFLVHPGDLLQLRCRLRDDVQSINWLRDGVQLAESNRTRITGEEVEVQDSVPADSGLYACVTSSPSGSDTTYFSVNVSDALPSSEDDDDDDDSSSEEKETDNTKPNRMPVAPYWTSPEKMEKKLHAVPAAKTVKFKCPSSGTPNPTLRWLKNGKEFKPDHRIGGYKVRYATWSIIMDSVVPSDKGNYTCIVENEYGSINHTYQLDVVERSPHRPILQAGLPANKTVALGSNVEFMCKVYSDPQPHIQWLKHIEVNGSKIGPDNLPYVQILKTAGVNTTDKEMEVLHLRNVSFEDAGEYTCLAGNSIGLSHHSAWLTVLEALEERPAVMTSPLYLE
# assay-details: peptide or protein array; PepSpot: 15-residue peptides spanning FGF4 covalently bound to a cellulose membrane; blocked with 3% BSA in TBS-T; probed with HiLyte488-labelled FGFR1-Fc or Fc domain (0.1 µg/ml in blocking buffer) overnight at 4°C
# measurement-parameters: both partners purified
No end group written: not given here.
measurement-label: binding result

binder	reported-measurement
RVSPTMKVTHFLPRL (also: covalently bound to cellulose-β-alanine membrane, also called peptide 21; source: synthetic peptide on cellulose membrane (PepSpot, JPT, Berlin)) [PepSpot peptide no. 21 of FGF4]	binds
KNGKTKKGNRVSPTM (also: covalently bound to cellulose-β-alanine membrane, source: synthetic peptide on cellulose membrane (PepSpot, JPT, Berlin)) [PepSpot peptide no. 20 of FGF4]	binds
SRFFVAMSSKGKLYG (also: covalently bound to cellulose-β-alanine membrane, also called peptide 15; source: synthetic peptide on cellulose membrane (PepSpot, JPT, Berlin)) [PepSpot peptide no. 15 of FGF4]	binds
LRRLYCNVGIGFHLQ (also: covalently bound to cellulose-β-alanine membrane, also called peptide F4_3; 4_3; source: synthetic peptide on cellulose membrane (PepSpot, JPT, Berlin)) [PepSpot peptide no. 10 of FGF4]	binds

Data request, read-out binding result, for KYPGMFIALSKNGKT (also: covalently bound to cellulose-β-alanine membrane, also called peptide 19; source: synthetic peptide on cellulose membrane (PepSpot, JPT, Berlin)) [PepSpot peptide no. 19 of FGF4]
binds
